Target: T1, P26 (human, UniProt P02771 381-609, limits assumed)
T1 construct: also called AFP p26
T1 sequence: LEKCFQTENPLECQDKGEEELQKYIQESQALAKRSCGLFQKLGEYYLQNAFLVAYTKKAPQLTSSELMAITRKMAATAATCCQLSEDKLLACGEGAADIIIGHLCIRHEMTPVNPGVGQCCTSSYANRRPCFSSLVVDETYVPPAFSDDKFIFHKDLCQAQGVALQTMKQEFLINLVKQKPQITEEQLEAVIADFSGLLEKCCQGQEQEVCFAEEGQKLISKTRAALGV
Experiment: ELISA, format not described
Set-up: unit not given here
Threshold rule: ELISA_avg greater than or equal to 20 is TRUE; below that, FALSE.

binder: D domain SEQ ID NO: 929 (designed binder) MGSWHHFKYFLADIKSILEALGGSEAELAIFEVQIAYFEDLLQSYKGKGNPEVEALRKEAAAIRDELQAYRHN
assigned-category: FALSE
--
binder: D domain SEQ ID NO: 912 (designed binder) MGSWSEFVHRLDAIEVRLFALGGSEAELAAFEKEIAAFESELQAYKGKGNPEVEELRYHAAKIRSWLQAYRHN
assigned-category: FALSE
--
binder: D domain SEQ ID NO: 978 (designed binder) MGSWIHFKNDLAVIKDELEALGGSEAELARFEIMIAWFEDALQWYKGKGNPEVEALRKEAAAIRDELQAYRHN
assigned-category: FALSE
--
binder: D domain SEQ ID NO: 961 (designed binder) MGSWMHFKQDLAEIKGYLEALGGSEAELAIFEMDIAWFEYMLQYYKGKGNPEVEALRKEAAAIRDELQAYRHN
assigned-category: FALSE
--
binder: D domain SEQ ID NO: 876 (designed binder) MGSWFEFYERLNAIDSRLWALGGSEAELAAFEKEIAAFESELQAYKGKGNPEVEKLRAHAASIRTWLQAYRHN
assigned-category: TRUE
--
binder: D domain SEQ ID NO: 914 (designed binder) MGSWYEFYLRLSAIEDRLFALGGSEAELAAFEKEIAAFESELQAYKGKGNPEVESLRVQAAHIRTWLQAYRHN
assigned-category: TRUE
--
binder: D domain SEQ ID NO: 966 (designed binder) MGSWYYFKERLAAIKDRLEALGGSEAELAIFEADIAWFEFMLQYYKGKGNPEVEALRKEAAAIRDELQAYRHN
assigned-category: TRUE
--
binder: D domain SEQ ID NO: 944 (designed binder) MGSWLYFKSDLAWIKWRLEALGGSEAELADFEEAIAEFEQALQIYKGKGNPEVEALRKEAAAIRDELQAYRHN
assigned-category: TRUE
--
binder: D domain SEQ ID NO: 943 (designed binder) MGSWLLFKSDLAWIKWRLEALGGSEAELAEFEESIAMFEHWLQEYKGKGNPEVEALRKEAAAIRDELQAYRHN
assigned-category: TRUE
--
binder: D domain SEQ ID NO: 910 (designed binder) MGSWYEFVIRLDAIEDRLFALGGSEAELAAFEKEIAAFESELQAYKGKGNPEVEHLRVHAAHIRVWLQAYRHN
assigned-category: TRUE
--
binder: D domain SEQ ID NO: 973 (designed binder) MGSWEIFKDDLASIKKVLEALGGSEAELALFESDIAWFELMLQYYKGKGNPEVEALRKEAAAIRDELQAYRHN
assigned-category: TRUE
--
binder: D domain SEQ ID NO: 958 (designed binder) MGSWVYFKDHLAEIKSQLEALGGSEAELALFEYDIAWFEFILQYYKGKGNPEVEALRKEAAAIRDELQAYRHN
assigned-category: TRUE
--
binder: D domain SEQ ID NO: 957 (designed binder) MGSWWVFKKTLAEIKWTLEALGGSEAELAYFEAEIAFFEFILQQYKGKGNPEVEALRKEAAAIRDELQAYRHN
assigned-category: FALSE
--
binder: D domain SEQ ID NO: 882 (designed binder) MGSWNEFMDRLNAIDNRLWALGGSEAELAAFEKEIAAFESELQAYKGKGNPEVENLRKQAASIRLWLQAYRHN
assigned-category: FALSE
--
binder: D domain SEQ ID NO: 889 (designed binder) MGSWSEFFKRLEAIDRRLWALGGSEAELAAFEKEIAAFESELQAYKGKGNPEVEELREHAAHIRVWLQAYRHN
assigned-category: TRUE
--
binder: D domain SEQ ID NO: 947 (designed binder) MGSWVYFKAHLAFIKWELEALGGSEAELANFESTIAEFEKYLQVYKGKGNPEVEALRKEAAAIRDELQAYRHN
assigned-category: TRUE
--
binder: D domain SEQ ID NO: 892 (designed binder) MGSWTEFHQRLDAIDERLWALGGSEAELAAFEKEIAAFESELQAYKGKGNPEVEFLREHAAKIRMWLQAYRHN
assigned-category: TRUE

Cited source for all entries: patent US20250026849A1
